target: Dual specificity protein phosphatase 6 (Homo sapiens) (UniProt Q16828); assay: DUSP6 inhibitors restoring Erk phosphorylation by chemical complementation, primary imaging in DUSP6-transfected HeLa (AID 609); conditions: HeLa MKP-3 transfected, phospho-Erk imaging KS statistic; at 10 µM; hits give high values; cells stimulated with TPA for 15 min;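 note: phospho-Erk level distribution per well compared with pooled transfected vehicle control wells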
Sequence (Q16828 whole entry, looked up): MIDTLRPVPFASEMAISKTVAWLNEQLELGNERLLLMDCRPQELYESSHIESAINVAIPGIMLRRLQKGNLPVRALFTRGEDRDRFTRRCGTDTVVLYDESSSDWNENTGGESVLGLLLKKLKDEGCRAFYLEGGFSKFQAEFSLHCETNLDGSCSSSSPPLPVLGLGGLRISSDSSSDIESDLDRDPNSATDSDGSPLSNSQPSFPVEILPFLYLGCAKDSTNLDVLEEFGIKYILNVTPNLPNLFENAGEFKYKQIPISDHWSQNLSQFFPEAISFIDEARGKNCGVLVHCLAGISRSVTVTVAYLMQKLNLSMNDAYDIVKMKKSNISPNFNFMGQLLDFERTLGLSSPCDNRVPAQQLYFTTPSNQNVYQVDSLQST
Measurement label: inhibition (%)
State just the number; it will be interpreted in %.

What is its inhibition for Dual specificity protein phosphatase 6 (Homo sapiens) (UniProt Q16828)? Entry: `COc1cc(S(=O)(=O)N2CCN(C)CC2)c(OC)cc1Br` 1.63

What is its inhibition for Dual specificity protein phosphatase 6 (Homo sapiens) (UniProt Q16828)? Entry: `CN(C)c1cccc2c(S(=O)(=O)N3CCOCC3)cccc12` -9.91

What is its inhibition for Dual specificity protein phosphatase 6 (Homo sapiens) (UniProt Q16828)? Entry: `CCc1nc2n[nH]c(N)c2c2c1CCCC2` 5.42

What is its inhibition for Dual specificity protein phosphatase 6 (Homo sapiens) (UniProt Q16828)? Entry: `CCC(NC(=O)Nc1ncccc1C)(C(F)(F)F)C(F)(F)F` 20.2

What is its inhibition for Dual specificity protein phosphatase 6 (Homo sapiens) (UniProt Q16828)? Entry: `COC(=O)[C@H]1CCCN1C(=O)Nc1cccc(Oc2c(F)c(F)c(F)c(F)c2F)c1` 13.4

What is its inhibition for Dual specificity protein phosphatase 6 (Homo sapiens) (UniProt Q16828)? Entry: CCN(CC)CCN1C(=O)C(O)=C(C(C)=O)C1c1ccc(OC)c(OC)c1 (stereo unspecified) -5.62

What is its inhibition for Dual specificity protein phosphatase 6 (Homo sapiens) (UniProt Q16828)? Entry: `CSc1nc2sc3c(c2c2nncn12)CCC3` -13.3

What is its inhibition for Dual specificity protein phosphatase 6 (Homo sapiens) (UniProt Q16828)? Entry: `CN(C)c1nc(OCCNC(=O)Nc2ccccc2)nc(N(C)C)n1` 5.42

What is its inhibition for Dual specificity protein phosphatase 6 (Homo sapiens) (UniProt Q16828)? Entry: CCOC(=O)/C(C#N)=C1/SC(CCO)C(=O)N1c1ccccc1 (stereo unspecified) -2.59

What is its inhibition for Dual specificity protein phosphatase 6 (Homo sapiens) (UniProt Q16828)? Entry: O=C(O)C(O)c1ccco1 (stereo unspecified) -4.59

What is its inhibition for Dual specificity protein phosphatase 6 (Homo sapiens) (UniProt Q16828)? Entry: COc1ccc(/C(O)=C2/C(=O)C(=O)N(CCN3CCOCC3)C2c2cccnc2)cc1OC (stereo unspecified) 11.9

---

molecular target: Alpha-2C adrenergic receptor (Homo sapiens); assay: modulators of alpha2C/GIRK thallium flux, primary screen, cell-based, HEK293 alpha2C/GIRK1/2 (AID 624); conditions: thallium flux BTC fluorescence, at 10 µM, actives lie on both sides;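 note: slope of fluorescence ratio to pre-addition baseline per second over 15 to 24 s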
Kindly supply the reported slope values for the records listed here.
// print number alone

Suppose we examine the compound `Cc1onc(-c2ccccc2Cl)c1C(=O)Nc1cccnc1` ; what slope value has been reported? 0.00566

Suppose we examine the compound `O=S1(=O)C=C(Oc2ccc(F)cc2)c2ccccc21` ; what slope value has been reported? 0.00496

Suppose we examine the compound `CCn1c(SCC(=O)NC)nnc1C(C)C` ; what slope value has been reported? 0.0053

Suppose we examine the compound `Cc1cc(C)c2c(=O)n(CC(=O)N3CCC(Cc4ccccc4)CC3)sc2n1` ; what slope value has been reported? 0.00614

Suppose we examine the compound CCC1CCCCN1C(=O)CSc1nnc(-c2ccc(OC)cc2)o1 (configuration not stated) ; what slope value has been reported? 0.0067

Suppose we examine the compound `CC(=O)Nc1ccc(S(=O)(=O)N2CCC(NC(C)=O)(c3cccc(F)c3)CC2)cc1` ; what slope value has been reported? 0.0062

Suppose we examine the compound `Cc1ccccc1-n1c(=O)cc(NCc2ccc3c(c2)OCO3)[nH]c1=O` ; what slope value has been reported? 0.00889

Suppose we examine the compound `C=CCSc1nc(N)c2c(C)c(C)sc2n1` ; what slope value has been reported? 0.000164

Suppose we examine the compound `COC(=O)c1ccccc1NC(=O)COc1ccc(S(=O)(=O)N2CCCC2)cc1C` ; what slope value has been reported? 0.00334

Suppose we examine the compound CCOC(=O)c1sc(NC(=O)C2CC=CCC2C(=O)O)nc1C (configuration not stated) ; what slope value has been reported? 0.00721

Suppose we examine the compound Cc1nnc(NC(=O)CSc2nc3c(c(=O)n2C)SC(C)C3)s1 (configuration not stated) ; what slope value has been reported? 0.00476

Suppose we examine the compound `Cc1ccc(-n2nnnc2SCC(=O)c2cc(C)n(-c3cc(C)on3)c2C)cc1` ; what slope value has been reported? 0.00585

Suppose we examine the compound `COc1cc(NC(=O)Cc2ccccc2OC)cc(OC)c1` ; what slope value has been reported? 0.00483

Suppose we examine the compound `O=C(CCn1c(=O)sc2ccccc21)Nc1nccs1` ; what slope value has been reported? 0.00595

Suppose we examine the compound `CCOc1ccccc1N1Cc2cc(C)c(C)cc2C1` ; what slope value has been reported? 0.00798

Suppose we examine the compound `O=C(Nc1ccc2c(c1)nc1n2CCN(Cc2ccccc2)C1)c1cccs1` ; what slope value has been reported? 0.00505

Suppose we examine the compound CCC1(NC(C)=O)CC2CC1CC2NC(C)=O (configuration not stated) ; what slope value has been reported? 0.00321

Suppose we examine the compound Cc1nc2sc(C(c3cccc(F)c3)N3CCOCC3)c(O)n2n1 (configuration not stated) ; what slope value has been reported? 0.00576

Suppose we examine the compound COc1ccc(C(O)C(CN2CCOCC2)c2ccccc2)cc1F (configuration not stated) ; what slope value has been reported? 0.0062

Suppose we examine the compound CCc1ccc(N2CC(C(=O)OCC(=O)NC3CCS(=O)(=O)C3)CC2=O)cc1 (configuration not stated) ; what slope value has been reported? 0.00704

Suppose we examine the compound `CCOC(=O)c1ccc(NC(=O)CSCc2ccco2)cc1` ; what slope value has been reported? 0.0058

Suppose we examine the compound `Cc1cc(NC(=O)Cc2cn3ccsc3n2)n(-c2ccccc2)n1` ; what slope value has been reported? 0.00558

Suppose we examine the compound `O=C(CCS(=O)(=O)c1cccc2nsnc12)N1CCN(Cc2ccc3c(c2)OCO3)CC1` ; what slope value has been reported? 0.00459

Suppose we examine the compound `N#Cc1cc2c(nc1SCC(=O)N1CCCCC1)CCCC2` ; what slope value has been reported? 0.00388

Suppose we examine the compound `O=C(Nc1nnc(-c2ccc(Cl)cc2)o1)C1CCCCC1` ; what slope value has been reported? 0.00624

Suppose we examine the compound `O=c1c2ccccc2nnn1CSc1nnc2sc3ccccc3n12` ; what slope value has been reported? 0.00436

Suppose we examine the compound O=C(CCS(=O)(=O)c1cc(Br)cc2c1N(C(=O)C1CC1)CC2)NCC1CCCO1 (configuration not stated) ; what slope value has been reported? 0.00703

Suppose we examine the compound `O=C(Cc1cccs1)NCc1ccc(F)cc1` ; what slope value has been reported? 0.00459

Suppose we examine the compound `O=C(COc1ccccc1)Nc1nc2ccccc2[nH]1` ; what slope value has been reported? 0.00605

Suppose we examine the compound `O=C(CNc1ccc(Oc2ccccc2)cc1)N1CCOCC1` ; what slope value has been reported? 0.00652

Suppose we examine the compound `COc1cccc(-c2cc(C(F)(F)F)n3ncc(C(=O)O)c3n2)c1` ; what slope value has been reported? 0.00328

Suppose we examine the compound CCOC(=O)c1cc(C)sc1N1C(=O)C2C3C=CC(C3)C2C1=O (configuration not stated) ; what slope value has been reported? 0.00512

Suppose we examine the compound `CCOC(=O)N1CCN(C(=O)c2ccc(CS(=O)(=O)c3c(Cl)cccc3Cl)o2)CC1` ; what slope value has been reported? 0.00631

Suppose we examine the compound `Cc1cc(NC(=O)CSc2nccn2-c2ccc(F)cc2)no1` ; what slope value has been reported? 0.00665

Suppose we examine the compound `CCOc1ccc(C(=O)N2CCN(C(=O)c3ccco3)CC2)cc1OCC` ; what slope value has been reported? 0.00675

Suppose we examine the compound `Cc1ccc(NC(=O)CSc2nnc(-c3ccccn3)n2C)cc1` ; what slope value has been reported? 0.00462

Suppose we examine the compound COc1ccc(Cn2nnnc2C(c2cccnc2)N2CCN(c3ccc(O)cc3)CC2)cc1 (configuration not stated) ; what slope value has been reported? 0.00403

Suppose we examine the compound `CC(C)(C)NC(=O)Cn1c(=O)oc2ccc(Cl)cc21` ; what slope value has been reported? 0.00569

Suppose we examine the compound `O=C(c1ccccc1)c1ccncc1` ; what slope value has been reported? 0.0031

Suppose we examine the compound C=CCOC(=O)C1=C(C)OC(N)=C(C#N)C1c1ccc2c(c1)OCO2 (configuration not stated) ; what slope value has been reported? 0.00567

Suppose we examine the compound `Cc1cc(C)n2nc(S(=O)(=O)N(C)c3ccccc3)nc2n1` ; what slope value has been reported? 0.00717

Suppose we examine the compound `CCc1c(C)c2ccc(OCC(=O)OC)cc2oc1=O` ; what slope value has been reported? 0.00537

Suppose we examine the compound COc1cccc(NC(=O)N2CCCC2C(=O)NC(C)C)c1 (configuration not stated) ; what slope value has been reported? 0.00309

Suppose we examine the compound CCC(C)NC(=O)c1cn(CC)c2ccc(S(=O)(=O)N(C)C)cc2c1=O (configuration not stated) ; what slope value has been reported? 0.00604

Suppose we examine the compound `O=C(CN1C(=O)COc2ccccc21)N(Cc1cccnc1)Cc1ccccc1F` ; what slope value has been reported? 0.00465

Suppose we examine the compound Cc1ccc(O)c(C(CC(=O)N2CCCC2)c2ccccc2)c1 (configuration not stated) ; what slope value has been reported? 0.00552

Suppose we examine the compound `COc1cccc(OC)c1OCCNCCO` ; what slope value has been reported? 0.00544
